FYI, the data here is from ChEMBL document CHEMBL4261570.

- Test system: Entamoeba histolytica
- assay-procedure: Antiparasitic activity against Entamoeba histolytica HM-1:IMSS trophozoites assessed as parasite growth inhibition at 50 uM after 48 hrs by ATP bioluminescence-based CellTiter-Glo luminescent cell viability assay relative to control
- Assay type: functional
- study-conditions: read-out: GI
Entry flag: true (1) if inhibition of growth at 50 µM reaches 10%; false (0) if it does not.

- compound-structure: "O=C1C(=O)N(CCBr)c2ccccc21"
  system-under-test: "Entamoeba histolytica"
  cat: "false (0)"
- compound-structure: "O=C1C(=O)N(CCN2C(=O)C(=O)c3cc(Cl)ccc32)c2ccccc21"
  system-under-test: "Entamoeba histolytica"
  cat: "true (1)"
- compound-structure: "O=C1C(=O)N(CCCCCN2C(=O)C(=O)c3ccccc32)c2ccccc21"
  system-under-test: "Entamoeba histolytica"
  cat: "true (1)"

Query string: Quick check: does `O=C1C(=O)N(CCCCCN2C(=O)C(=O)c3cc(Cl)ccc32)c2ccccc21` have inhibition of growth at 50 µM greater than or equal to 10%?
Result string: true (1)

Query string: Quick check: does `O=C1C(=O)N(CCCCCCCCN2C(=O)C(=O)c3cc(F)ccc32)c2ccccc21` have inhibition of growth at 50 µM greater than or equal to 10%?
Result string: true (1)

Query string: Quick check: does `O=C1C(=O)N(CCCCCCCCN2C(=O)C(=O)c3ccccc32)c2ccccc21` have inhibition of growth at 50 µM greater than or equal to 10%?
Result string: true (1)

Query string: Quick check: does `O=C1C(=O)N(CCCBr)c2ccccc21` have inhibition of growth at 50 µM greater than or equal to 10%?
Result string: false (0)

Query string: Quick check: does `O=C1C(=O)N(CCCCBr)c2ccccc21` have inhibition of growth at 50 µM greater than or equal to 10%?
Result string: false (0)

Query string: Quick check: does `O=C1C(=O)N(CCCCCBr)c2ccccc21` have inhibition of growth at 50 µM greater than or equal to 10%?
Result string: true (1)

---

- Test system: Lactobacillus acidophilus
- assay-procedure: Toxicity in Lactobacillus acidophilus ATCC 43560 at 100 uM measured after overnight incubation by disc diffusion method
- Assay type: organism-based
- study-conditions: in vivo

- compound-structure: "O=C1C(=O)N(CCCCN2C(=O)C(=O)c3cc(F)ccc32)c2ccccc21"
  Activity: "Non-Toxic"
- compound-structure: "O=C1C(=O)N(CCCCCCN2C(=O)C(=O)c3ccccc32)c2ccccc21"
  Activity: "Non-Toxic"
- compound-structure: "O=C1C(=O)N(CCCCCCCCBr)c2ccccc21"
  Activity: "Non-Toxic"

---

- Tested on: Giardia intestinalis
- assay-procedure: Antiparasitic activity against Giardia lamblia WB trophozoites assessed as parasite growth inhibition at 50 uM after 48 hrs by ATP bioluminescence-based CellTiter-Glo luminescent cell viability assay relative to control
- Type: functional
- study-conditions: Giardia duodenalis, read-out: GI
Entry flag: fulfilled if inhibition of growth at 50 µM reaches 10%; not fulfilled if it does not.

# count of solved cases: 5
- compound-structure: "O=C1C(=O)N(CCN2C(=O)C(=O)c3ccccc32)c2ccccc21"
  system-under-test: "Giardia intestinalis"
  cat: "not fulfilled"
- compound-structure: "O=C1C(=O)N(CCCCCCBr)c2ccccc21"
  system-under-test: "Giardia intestinalis"
  cat: "fulfilled"
- compound-structure: "O=C1C(=O)N(CCN2C(=O)C(=O)c3cc(F)ccc32)c2ccccc21"
  system-under-test: "Giardia intestinalis"
  cat: "not fulfilled"
- compound-structure: "O=C1C(=O)N(CCCCN2C(=O)C(=O)c3ccccc32)c2ccccc21"
  system-under-test: "Giardia intestinalis"
  cat: "fulfilled"
- compound-structure: "O=C1C(=O)N(CCCCCCN2C(=O)C(=O)c3cc(Br)ccc32)c2ccccc21"
  system-under-test: "Giardia intestinalis"
  cat: "fulfilled"

Query string: Quick check: does `O=C1C(=O)N(CCN2C(=O)C(=O)c3cc(Cl)ccc32)c2ccccc21` have inhibition of growth at 50 µM greater than or equal to 10%?
Result string: not fulfilled

---

- Tested on: Naegleria fowleri
- assay-procedure: Antiparasitic activity against Naegleria fowleri KUL trophozoites assessed as parasite growth inhibition after 48 hrs by ATP bioluminescence-based CellTiter-Glo luminescent cell viability assay
- Format: functional, organism-based
# Lookup of reported IC50 keyed by entry
Quick note: give the figure in µM, leave out the unit.

Solved entries:
- compound-structure: "O=C1C(=O)N(CCCCCN2C(=O)C(=O)c3cc(Cl)ccc32)c2ccccc21"
  IC50 (µM): 14.8
- compound-structure: "O=C1C(=O)N(CCCCBr)c2ccccc21"
  IC50 (µM): 14.5

Query string: Please supply the value of reported IC50 for the item `C[C@@H]1[C@H](O)[C@@H](C)/C=C/C=C/C=C/C=C/C=C/C=C/C=C/[C@H](O[C@@H]2O[C@H](C)[C@@H](O)[C@H](N)[C@@H]2O)C[C@@H]2O[C@](O)(C[C@@H](O)C[C@@H](O)[C@H](O)CC[C@@H](O)C[C@@H](O)CC(=O)O[C@H]1C)C[C@H](O)[C@H]2C(=O)O`
Result string: 0.2

Query string: Please supply the value of reported IC50 for the item `O=C1C(=O)N(CCCCCN2C(=O)C(=O)c3cc(F)ccc32)c2ccccc21`
Result string: 27.3

Query string: Please supply the value of reported IC50 for the item `CCCCCCCCCCCCCCCCOP(=O)([O-])OCC[N+](C)(C)C`
Result string: 54.5

Query string: Please supply the value of reported IC50 for the item `O=C1C(=O)N(CCBr)c2ccccc21`
Result string: 23.6

Query string: Please supply the value of reported IC50 for the item `O=C1C(=O)N(CCN2C(=O)C(=O)c3cc(Cl)ccc32)c2ccccc21`
Result string: 28.3

---

- Tested on: Saccharomyces cerevisiae
- assay-procedure: Antifungal activity against Saccharomyces cerevisiae BY4741 assessed as fungal growth at 500 uM after 48 hrs by microtiter plate liquid bioassay (reference value: 100%)
- Type: functional
# Lookup of reported Activity keyed by entry
Quick note: give the figure in %, leave out the unit.

- compound: "O=C1C(=O)N(CCCN2C(=O)C(=O)c3cc(Br)ccc32)c2ccccc21"
  Activity (%): 50
- compound: "O=C1C(=O)N(CCCCCN2C(=O)C(=O)c3cc(F)ccc32)c2ccccc21"
  Activity (%): 75
- compound: "O=C1C(=O)N(CCCBr)c2ccccc21"
  Activity (%): 75

Query string: Please supply the value of reported Activity for the item `O=C1C(=O)N(CCCCN2C(=O)C(=O)c3cc(Cl)ccc32)c2ccccc21`
Result string: 75

Query string: Please supply the value of reported Activity for the item `O=C1C(=O)N(CCCCBr)c2ccccc21`
Result string: 50

---

- Test system: Lacticaseibacillus rhamnosus
- assay-procedure: Toxicity in Lactobacillus rhamnosus ATCC 53103 at 100 uM measured after overnight incubation by disc diffusion method
- Assay type: organism-based, GG
- study-conditions: in vivo
property-measured: Activity

Solved entries:
- compound-structure: "O=C1C(=O)N(CCCCN2C(=O)C(=O)c3cc(Cl)ccc32)c2ccccc21"
  property-measured: "Activity"
  result: "Non-Toxic"
- compound-structure: "O=C1C(=O)N(CCCCCCN2C(=O)C(=O)c3cc(Br)ccc32)c2ccccc21"
  property-measured: "Activity"
  result: "Non-Toxic"
- compound-structure: "O=C1C(=O)N(CCCCBr)c2ccccc21"
  property-measured: "Activity"
  result: "Non-Toxic"
- compound-structure: "O=C1C(=O)N(CCCCCCN2C(=O)C(=O)c3ccccc32)c2ccccc21"
  property-measured: "Activity"
  result: "Non-Toxic"
- compound-structure: "O=C1C(=O)N(CCCCCCBr)c2ccccc21"
  property-measured: "Activity"
  result: "Non-Toxic"

Query string: Please supply the value of reported Activity for the item `O=C1C(=O)N(CCCCCN2C(=O)C(=O)c3cc(Cl)ccc32)c2ccccc21`
Result string: Non-Toxic

Query string: Please supply the value of reported Activity for the item `O=C1C(=O)N(CCCCCCCCN2C(=O)C(=O)c3ccccc32)c2ccccc21`
Result string: Non-Toxic

Query string: Please supply the value of reported Activity for the item `O=C1C(=O)N(CCCCCN2C(=O)C(=O)c3ccccc32)c2ccccc21`
Result string: Non-Toxic

Query string: Please supply the value of reported Activity for the item `O=C1C(=O)N(CCCN2C(=O)C(=O)c3cc(Cl)ccc32)c2ccccc21`
Result string: Non-Toxic

Query string: Please supply the value of reported Activity for the item `O=C1C(=O)N(CCCN2C(=O)C(=O)c3cc(F)ccc32)c2ccccc21`
Result string: Non-Toxic

Query string: Please supply the value of reported Activity for the item `O=C1C(=O)N(CCCN2C(=O)C(=O)c3ccccc32)c2ccccc21`
Result string: Non-Toxic

Query string: Please supply the value of reported Activity for the item `O=C1C(=O)N(CCN2C(=O)C(=O)c3cc(F)ccc32)c2ccccc21`
Result string: Non-Toxic

Query string: Please supply the value of reported Activity for the item `O=C1C(=O)N(CCCCCCN2C(=O)C(=O)c3cc(F)ccc32)c2ccccc21`
Result string: Non-Toxic

Query string: Please supply the value of reported Activity for the item `O=C1C(=O)N(CCCCCCCCN2C(=O)C(=O)c3cc(Cl)ccc32)c2ccccc21`
Result string: Non-Toxic
